B1: DYRK1B (parent)
chain: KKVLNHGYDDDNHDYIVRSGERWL

# Variants of: B1
# Procedure Summary: protein stability index of a GFP-peptide fusion (GPS, HEK-293T) (PSI 1-6); higher = more stable;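 also: lentivirally expressed fusions sorted by FACS into six bins by GFP to DsRed ratio, PSI derived from sequencing read proportions per bin multiplied by bin number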
# Experimental Context: c terminus: a fixed tail appended
Form field: protein stability index (one value per entry).
Give your answer as a number; write no unit.

GET /values?readout=protein stability index&item= KKVLNHGYDDDLHDYIVRSGERWL [N12L] 2.3

GET /values?readout=protein stability index&item= KKVLNHGYDDDNHKYIVRSGERWL [D14K] 3

GET /values?readout=protein stability index&item= KKVLNHGYDDDNIDYIVRSGERWL [H13I] 2.79

GET /values?readout=protein stability index&item= KKVLNHGYDDDNHDYIVRSGWRWL [E21W] 2.57
